- protocolDescription: Pharmacokinetic evaluation by intravenous injection or oral gavage in mice
- conditionNotes: mouse, plasma, iv, 2 mg/kg/day

molecule	Tmax / min
C#Cc1c(F)ccc2cc(O)cc(-c3nc(C#CC)c4c(N5CCCCC(F)C5)nc(OC[C@@]56CCCN5C[C@H](F)C6)nc4c3F)c12 (stereo partly shown)	4.98

###

- protocolDescription: in vivo
- conditionNotes: mouse, iv, 2 mg/kg/day

compound	Tmax
C#Cc1c(F)ccc2cc(O)cc(-c3nc(C#CCC)c4c(N5CCCCC(F)C5)nc(OC[C@@]56CCCN5C[C@H](F)C6)nc4c3F)c12 (stereo partly shown)	4.98 min

###

- protocolDescription: Pharmacokinetic evaluation by intravenous injection or oral gavage in mice
- conditionNotes: mouse, plasma, iv, 2 mg/kg/day

compound	readoutUnit	AUC(0-inf)
C#Cc1c(F)ccc2cc(O)cc(-c3nc(C#CC)c4c(N5CCCCC(F)C5)nc(OC[C@@]56CCCN5C[C@H](F)C6)nc4c3F)c12 (stereo partly shown)	ng·h/mL	10800

###

- protocolDescription: in vivo
- conditionNotes: mouse, po, 5 mg/kg/day

compound	readoutUnit	AUC(0-t)
C#Cc1c(F)ccc2cc(O)cc(-c3nc(C#CCC)c4c(N5CCCCC(F)C5)nc(OC[C@@]56CCCN5C[C@H](F)C6)nc4c3F)c12 (stereo partly shown)	ng·h/mL	4120

###

- protocolDescription: in vivo
- conditionNotes: mouse, iv, 2 mg/kg/day

compound	readoutUnit	MRT last
C#Cc1c(F)ccc2cc(O)cc(-c3nc(C#CCC)c4c(N5CCCCC(F)C5)nc(OC[C@@]56CCCN5C[C@H](F)C6)nc4c3F)c12 (stereo partly shown) [Compound 26]	h	1.2

###

- protocolDescription: Pharmacokinetic evaluation by intravenous injection or oral gavage in mice
- conditionNotes: mouse, plasma, po, 5 mg/kg/day
quantityKind: Tmax (min)

molecule	readoutUnit	measValue
C#Cc1c(F)ccc2cc(O)cc(-c3nc(C#CC)c4c(N5CCCCC(F)C5)nc(OC[C@@]56CCCN5C[C@H](F)C6)nc4c3F)c12 (stereo partly shown)	min	25.2
